Molecular target: Human GPA33 on GPA33+ colorectal cancer cell lines (Colo 205, LS 174T, SW 1222) (human) (UniProt Q99795)
Sequence (Q99795 22-319 limits assumed): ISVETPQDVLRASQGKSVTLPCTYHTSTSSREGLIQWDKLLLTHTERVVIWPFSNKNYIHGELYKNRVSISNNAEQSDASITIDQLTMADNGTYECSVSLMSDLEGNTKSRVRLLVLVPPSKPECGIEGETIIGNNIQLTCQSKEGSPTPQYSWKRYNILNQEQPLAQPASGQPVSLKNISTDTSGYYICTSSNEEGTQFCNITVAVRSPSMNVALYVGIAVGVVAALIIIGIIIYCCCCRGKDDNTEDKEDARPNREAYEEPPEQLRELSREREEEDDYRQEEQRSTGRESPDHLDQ
Assay: cell binding to SW1222 Luc cells; IgG format
Property: EC50; scope: individual binders
Report the figure in µg/mL without appending any unit label.

binder	display unit	observed measurement
G3A_VK3+VH2 (antibody, IgG1, V domains shown, part only, IgG1 constant regions not given) VH: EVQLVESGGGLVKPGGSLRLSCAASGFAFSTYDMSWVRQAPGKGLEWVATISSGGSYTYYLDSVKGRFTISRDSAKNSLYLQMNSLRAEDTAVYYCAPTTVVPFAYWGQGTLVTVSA VL: DIQMTQSPSSLSTSVGDRVTITCKASQNVRTVVAWYQQKPGKAPKTLIYLASNRHSGVPSRFSGSGSGTEFTLTISNLQPEDFATYYCLQHWSYPLTFGSGTKLEVK	µg/mL	0.383

Let us move to another entry and its EC50.
[Q] // query EC50 value for entry G3A_VK4+VH2 (antibody, IgG1, V domains shown, part only, IgG1 constant regions not given) VH: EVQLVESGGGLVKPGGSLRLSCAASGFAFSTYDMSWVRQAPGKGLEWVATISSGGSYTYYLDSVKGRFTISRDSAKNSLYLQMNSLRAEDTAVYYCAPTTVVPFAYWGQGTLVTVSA VL: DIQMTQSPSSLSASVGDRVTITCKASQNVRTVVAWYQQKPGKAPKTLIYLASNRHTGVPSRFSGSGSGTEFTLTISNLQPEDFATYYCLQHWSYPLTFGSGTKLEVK
[A] 0.314
